# System Tested: SHP2 (Homo sapiens (Human))
# Assay Overview: SHP2 Allosteric Inhibition Assay
# Format: biochemical
# Details: 0.5 nM SHP2 activated with 0.5 μM peptide IRS1_pY1172(dPEG8)pY1222, surrogate substrate DiFMUP, fluorescence
# Method: SHP2 Allosteric Inhibition Assay SHP2 is allosterically activated through binding of bis-tyrosyl-phorphorylated peptides to its Src Homology 2 (SH2) domains. […] The catalytic activity of SHP2 was monitored using the surrogate substrate DiFMUP in a prompt fluorescence assay format. […] The inhibitor dose response curves were analyzed using normalized IC50 regression curve fitting with control based normalization.
Quantity Kind: IC50 (nM)

INSERT INTO measurements (molecule, quantitative_readout) VALUES
  ('C[C@@H]1OCC2(CCN(c3cnc(Sc4cc(N)nc(Cl)c4Cl)c(N)n3)CC2)[C@@H]1N', 4),
  ('Nc1nc(N2CCC3(CCC[C@H]3N)CC2)cnc1Sc1ccnc(N)c1Cl', 14),
  ('Nc1nc(N2CCC3(CCC[C@H]3N)CC2)cnc1Sc1ccncc1Cl', 23),
  ('C[C@H]1CCC2(CCN(c3cnc(Sc4cccnc4C(F)(F)F)c(N)n3)CC2)[C@@H]1N (single isomer, unassigned) [Example 86a]', 10),
  ('NC(=O)c1cccc(Sc2ncc(N3CCC4(CCC[C@H]4N)CC3)nc2N)c1Cl', 16),
  ('Nc1nc(N2CCC3(CC2)COC[C@H]3N)cnc1Sc1ccnc(N)c1Cl', 7),
  ('CN[C@@H]1C[C@H](O)CC12CCN(c1cnc(Sc3cccnc3C(F)(F)F)c(N)n1)CC2', 234),
  ('NC(=O)c1nc(Sc2ccnc(C(F)(F)F)c2Cl)c(N)nc1N1CCC2(CCC[C@H]2N)CC1', 58);

(A) Nc1nc(N2CCC3(CC2)C[C@H](O)C[C@H]3N)cnc1Sc1ccnc(Cl)c1Cl
(B) Nc1nc(N2CCC3(CC2)C[C@@H](O)C[C@@H]3N)cnc1Sc1cccnc1C(F)(F)F
// compare measured IC50, left A , right B , return larger Respond using the label that marks the chosen record.
B

(I) Nc1nc(N2CCC3(CCC[C@H]3N)CC2)cnc1Sc1ccnc(F)c1Cl
(II) CO[C@@H]1C[C@@H](N)C2(CCN(c3cnc(Sc4ccnc(N)c4Cl)c(N)n3)CC2)C1
# return whichever of I and II has the smaller IC50 Indicate your choice by writing its label.
I
(I: 5 nM, II: 44 nM)

(A) C[C@@H]1C[C@H](N)C2(CCN(c3cnc(Sc4cccnc4C(F)(F)F)c(N)n3)CC2)C1
(B) Nc1nc(N2CCC3(CCCC3N)CC2)nnc1Sc1cccnc1C(F)(F)F (stereo in doubt)
Which entry shows the lesser value of IC50 here, A or B ? Record your answer as the label of the chosen record.
A
(A: 100 nM, B: 290 nM)

(I) Nc1nc(N2CCC3(CCC[C@H]3N)CC2)cnc1Sc1cccc(Cl)c1Cl
(II) NC1=NCCC12CCN(c1cnc(Sc3cccnc3C(F)(F)F)c(N)n1)CC2
Thinking about recorded IC50 values, which is higher, I or II ? Give the chosen item's label as your response.
II

(I) NC1=NC2(CCN(c3cnc(Sc4ccnc(Cl)c4Cl)c(N)n3)CC2)CO1
(II) Nc1cc(Sc2ncc(N3CCC4(CCC[C@H]4N)CC3)nc2N)c(Cl)cn1
(III) Nc1nc(N2CCC3(CCCCC3N)CC2)cnc1Sc1cccc(Cl)c1Cl (stereo not shown)
(IV) Nc1nc(N2CCC3(CC2)C[C@@H](O)C[C@H]3N)cnc1Sc1ccnc(N)c1Cl
(V) CC(C)C(=O)O[C@@H]1C[C@@H](N)C2(CCN(c3cnc(Sc4ccnc(Cl)c4Cl)c(N)n3)CC2)C1
Parameters: sort_field (IC50), sort_dir (desc). Enter labels, ranked according to the request.
V, III, I, II, IV
(V: 65 nM, III: 32 nM, I: 20 nM, II: 10 nM, IV: 7 nM)

(P) CO[C@H]1C[C@@H](N)C2(CCN(c3cnc(Sc4cccnc4C(F)(F)F)c(N)n3)CC2)C1
(Q) Nc1nc(N2CCC3(CCC[C@H]3N)CC2)cnc1Sc1ccnnc1Cl
Smaller IC50 value? Options are P and Q Respond with the label that goes with your answer.
P

(I) Nc1nc(N2CCC3(CC2)CC(F)(F)C[C@H]3N)cnc1Sc1ccnc(N)c1Cl
(II) Nc1nc(N2CCC3(CCC[C@H]3N)CC2)cnc1Sc1cccnc1Cl
Field: lower recorded IC50 (choose I or II ) Your answer should be the label attached to the chosen record.
I
(I: 10 nM, II: 15 nM)
